FYI, the data here is from ChEMBL document CHEMBL1275542.

Test system: Pasteurella multocida
Test: Ratio of MIC for Pasteurella multocida AL435 to MIC for TolC deficient Pasteurella multocida pm1980
Assay type: functional
attribute_measured: Ratio
Just the number, please, no unit after it.

Here are 8 compounds together with their reported answers.
> print(dat)
                                   compound  data.value
1  CC[n+]1c(-c2ccccc2)c2cc(N)ccc2c2ccc(N)cc21.[Br-] [HOMIDIUM BROMIDE]           2
2  Nc1ccc(S(=O)(=O)Nc2nccs2)cc1 [SULFATHIAZOLE]           1
3  CO[C@@H]1[C@@H](OC(N)=O)[C@@H](O)[C@H](Oc2ccc3c(O)c(NC(=O)c4ccc(O)c(CC=C(C)C)c4)c(=O)oc3c2C)OC1(C)C [NOVOBIOCIN]           2
4  CN(C)c1ccc(C(=C2C=CC(=[N+](C)C)C=C2)c2ccc(N(C)C)cc2)cc1.[Cl-] [GENTIAN VIOLET]           1
5  C[C@@H]1C[C@@H]([C@H](O)CC2CC(=O)NC(=O)C2)C(=O)[C@@H](C)C1 [CYCLOHEXIMIDE]           1
6  O=P1(N(CCCl)CCCl)NCCCO1 (centres undefined) [CYCLOPHOSPHAMIDE ANHYDROUS]           2
7  CCC[C@@H]1C[C@@H](C(=O)N[C@@H]([C@H]2O[C@H](SC)[C@H](O)[C@@H](O)[C@H]2O)[C@@H](C)O)N(C)C1 [LINCOMYCIN]           1
8  CN(C)c1ccc2cc3ccc(N(C)C)cc3nc2c1 [ACRIDINE ORANGE]           1

Please look at the following compound next.
Q) What value of Ratio on Pasteurella multocida does O=C(N[C@H](CO)[C@H](O)c1ccc([N+](=O)[O-])cc1)C(Cl)Cl [CHLORAMPHENICOL] have?
A) 1

====

Test system: Pasteurella multocida
Test: Antibacterial activity against Pasteurella multocida pm0527 after 24 hrs by broth dilution method
Format: functional
Conditions: pm0527, 24 h
attribute_measured: log10 MIC (log10 of the value in mg/L)
Note: values are log10 of MIC expressed in mg/L.

Below, each entry is followed by its recorded log10 MIC result.
compound	log10 MIC
Nc1ccc(S(=O)(=O)Nc2nccs2)cc1 [SULFATHIAZOLE]	3.10
CO[C@H]1/C=C/O[C@@]2(C)Oc3c(C)c(O)c4c(O)c(c(/C=N/N5CCN(C)CC5)c(O)c4c3C2=O)NC(=O)/C(C)=C\C=C\[C@H](C)[C@H](O)[C@@H](C)[C@@H](O)[C@@H](C)[C@H](OC(C)=O)[C@@H]1C [RIFAMPIN]	-0.70
O[C@@H](CS)[C@@H](O)CS [DITHIOTHREITOL]	3.30

Q) Give the measured log10 MIC of O=C(N[C@H](CO)[C@H](O)c1ccc([N+](=O)[O-])cc1)C(Cl)Cl [CHLORAMPHENICOL] .
A) 0.00

Q) What value of log10 MIC has been reported for the following compound? CN(C)c1ccc(C(=C2C=CC(=[N+](C)C)C=C2)c2ccc(N(C)C)cc2)cc1.[Cl-] [GENTIAN VIOLET]
A) 0.80

Q) Quick check: log10 MIC of CO[C@@H]1[C@@H](OC(N)=O)[C@@H](O)[C@H](Oc2ccc3c(O)c(NC(=O)c4ccc(O)c(CC=C(C)C)c4)c(=O)oc3c2C)OC1(C)C [NOVOBIOCIN] ?
A) 1.60

Q) Can you look up the measured log10 MIC of O=P1(N(CCCl)CCCl)NCCCO1 (stereo not drawn) [CYCLOPHOSPHAMIDE ANHYDROUS] for me?
A) 3.30

Q) Reported log10 MIC for CN(C)c1ccc2cc3ccc(N(C)C)cc3nc2c1 [ACRIDINE ORANGE] : what is it?
A) 1.18

Q) Returns the measured log10 MIC for the input compound. Input: CC(C)(O/N=C(\C(=O)N[C@@H]1C(=O)N2C(C(=O)[O-])=C(C[n+]3ccccc3)CS[C@H]12)c1csc(N)n1)C(=O)O [CEFTAZIDIME]
A) 0.89

Q) Recorded log10 MIC of COc1cc(Cc2cnc(N)nc2N)cc(OC)c1OC [TRIMETHOPRIM] , please.
A) -0.30

Q) Tell me the measured log10 MIC of CCC[C@@H]1C[C@@H](C(=O)N[C@@H]([C@H]2O[C@H](SC)[C@H](O)[C@@H](O)[C@H]2O)[C@@H](C)O)N(C)C1 [LINCOMYCIN] , please.
A) 1.40

Q) Fill blank: measured log10 MIC of the compound CN[C@H](CC(C)C)C(=O)N[C@H]1C(=O)N[C@@H](CC(N)=O)C(=O)N[C@H]2C(=O)N[C@H]3C(=O)N[C@H](C(=O)N[C@H](C(=O)O)c4cc(O)cc(O)c4-c4cc3ccc4O)[C@H](O)c3ccc(c(Cl)c3)Oc3cc2cc(c3O[C@@H]2O[C@H](CO)[C@@H](O)[C@H](O)[C@H]2O[C@H]2C[C@](C)(N)[C@H](O)[C@H](C)O2)Oc2ccc(cc2Cl)[C@H]1O [VANCOMYCIN] is ____.
A) 2.40

Q) May I ask what log10 MIC has been recorded for CC[n+]1c(-c2ccccc2)c2cc(N)ccc2c2ccc(N)cc21.[Br-] [HOMIDIUM BROMIDE] ?
A) 1.00

Q) // returns reported log10 MIC for input CCn1cc(C(=O)O)c(=O)c2ccc(C)nc21 [NALIDIXIC ACID]
A) 1.40

Q) Value lookup for log10 MIC; key = C[C@H](CCC(=O)O)[C@H]1CC[C@H]2[C@@H]3CC[C@@H]4C[C@H](O)CC[C@]4(C)[C@H]3C[C@H](O)[C@]12C [DEOXYCHOLIC ACID]
A) 2.49

Q) Which log10 MIC value is on record for C[C@@H]1C[C@@H]([C@H](O)CC2CC(=O)NC(=O)C2)C(=O)[C@@H](C)C1 [CYCLOHEXIMIDE] ?
A) 2.70

Q) # get_value(readout='log10 MIC', item= CCCCc1ccc(C(=O)O)nc1 [FUSARIC ACID] )
A) 1.70

Q) Given CC[C@H]1OC(=O)[C@H](C)[C@@H](O[C@H]2C[C@@](C)(OC)[C@@H](O)[C@H](C)O2)[C@H](C)[C@@H](O[C@@H]2O[C@H](C)C[C@H](N(C)C)[C@H]2O)[C@](C)(O)C[C@@H](C)C(=O)[C@H](C)[C@@H](O)[C@]1(C)O [ERYTHROMYCIN] , state its recorded log10 MIC.
A) 0.27
